# tested target: G-protein coupled receptor 6 (Homo sapiens, UniProt P46095)
# Sequence (P46095 whole entry): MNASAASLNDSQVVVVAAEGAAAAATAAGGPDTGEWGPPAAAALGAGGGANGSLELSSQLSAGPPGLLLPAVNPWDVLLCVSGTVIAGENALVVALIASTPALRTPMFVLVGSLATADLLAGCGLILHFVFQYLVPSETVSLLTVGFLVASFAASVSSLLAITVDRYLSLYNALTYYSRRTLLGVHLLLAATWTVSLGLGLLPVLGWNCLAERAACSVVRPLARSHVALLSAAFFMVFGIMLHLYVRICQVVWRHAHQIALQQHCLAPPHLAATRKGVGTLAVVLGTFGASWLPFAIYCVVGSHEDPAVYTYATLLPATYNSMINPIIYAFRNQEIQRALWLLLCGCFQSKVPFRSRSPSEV
# test method notes: Activity at GPR6 (unknown origin) expressed in CHOK1 cells assessed as inhibition of constitutive cAMP activity incubated for 45 mins by HTRF based cAMP detection assay
Entries and their log10 of IC50
Note: values are log10 of IC50 expressed in nM.

CN(C)C(=O)c1cc2nc(NC3CC3)c(N3CCC([C@@H](F)c4ccc(F)cc4F)CC3)nc2cn1 ... 0.90
N#Cc1ccc2nc(NC3CC3)c(N3CCN(S(=O)(=O)c4ccc(Cl)cc4)CC3)nc2c1 ... 2.76
O=C(c1c(F)cccc1Cl)C1CCN(c2nc3cnccc3nc2NC2CC2)CC1 ... 3.69

Query :: Give reported log10 of IC50 value for CC[C@H](C)Nc1nc2cnncc2nc1N1CCC(Oc2ccc(OC)cc2F)CC1
Result :: 1.32

Query :: Give reported log10 of IC50 value for COc1ccc(C(=O)C2CCN(c3nc4cnncc4nc3NC(C)C)CC2)c(F)c1
Result :: 1.73

Query :: Give reported log10 of IC50 value for CC(C)Nc1nc2cc(C(=O)N(C)C)ncc2nc1N1CCC(C(=O)c2cc(F)cc(F)c2)CC1
Result :: 1.20

----------
# tested target: UniProt P46095
# test method notes: Activity at GPR6 (unknown origin) expressed in CHOK1 cells assessed as inhibition of constitutive cAMP activity incubated for 45 mins by HTRF based cAMP detection assay
measured property: log10 of IC50 (log10 of the value in nM)
Note: values are log10 of IC50 expressed in nM.

COCCNc1nc2ccncc2nc1N1CCC(Oc2ccc(F)cc2F)CC1 ... 2.83
COc1ccc(CN2CCN(c3nc4cnc(N5CCOCC5)cc4nc3NC3CC3)CC2)c(F)c1 ... 1.96
CCOc1ccc(OC2CCN(c3nc4cnccc4nc3NC3CC3)CC2)cc1 ... 3.01
COc1ccc(CC2CCN(c3nc4cnc(C#N)cc4nc3NC(C)C)CC2)c(F)c1 ... 1.41
CSc1ccc(F)c(C(=O)C2CCN(c3nc4cnccc4nc3NC3CC3)CC2)c1 ... 2.68
COc1ccc(CC2CCN(c3nc4cnncc4nc3NC(C)C)CC2)c(F)c1 ... 1.18
CC(C)Nc1nc2cnncc2nc1N1CCC(Oc2ccc(C#N)cc2F)CC1 ... 1.86
N#Cc1cccc(S(=O)(=O)N2CCN(c3nc4cc(C#N)ccc4nc3NC3CC3)CC2)c1 ... 3.40
Clc1ccc(Cl)c(CN2CCN(c3nc4ccccc4nc3Nc3cnccn3)CC2)c1 ... 3.37
O=C(c1cccnc1Br)C1CCN(c2nc3cnccc3nc2NC2CC2)CC1 ... 3.44

Next compound, log10 of IC50 to be filled in.
Query :: Give reported log10 of IC50 value for CC(C)OCCNc1nc2ccccc2nc1N1CCN(Cc2cc(Cl)ccc2Cl)CC1
Result :: 3.52

----------
# tested target: G-protein coupled receptor 6 (Homo sapiens)
# test method notes: Activity at GPR6 (unknown origin) expressed in CHOK1 cells assessed as inhibition of constitutive cAMP activity incubated for 45 mins by HTRF based cAMP detection assay
Class assignment keyed on IC50, ranges A = under 30 nM, B = from 30 nM up to 800 nM, C = 800 nM and over

Fc1ccc([C@@H](F)C2CCN(c3nc4cnccc4nc3NC3CC3)CC2)c(F)c1 ... A

Query :: Which class is correct for the following compound? Fc1ccc(CC2CCN(c3nc4ccncc4nc3NC3CC3)CC2)c(F)c1
Result :: A

Query :: Which class is correct for the following compound? Oc1ccc(OC2CCN(c3nc4ccncc4nc3NC3CC3)CC2)c(F)c1
Result :: B

Query :: Which class is correct for the following compound? Fc1ccc(OC2CCN(c3nc4cc(Br)ccc4nc3NC3CC3)CC2)c(F)c1
Result :: C

----------
# tested target: G-protein coupled receptor 6 (Homo sapiens, UniProt P46095)
# test method notes: Activity at GPR6 (unknown origin) expressed in CHOK1 cells assessed as inhibition of constitutive cAMP activity incubated for 45 mins by HTRF based cAMP detection assay
pIC50: −log10 of the molar value.
Lab note: compare pIC50 against 7. Equal or greater, write 1 (yes). Smaller, write 0 (no).

Sample answers from the record:
FC(F)Oc1ccc(Cl)cc1CN1CCN(c2nc3cnccc3nc2NC2CC2)CC1 ... 0 (no)
O=S(=O)(c1ccccc1)N1CCN(c2nc3cc(F)ccc3nc2NC2CC2)CC1 ... 0 (no)
Fc1cc(F)c(OC2CCN(c3nc4cnccc4nc3NC3CC3)CC2)c(F)c1 ... 0 (no)
COc1ccc(OC2CCN(c3nc4cnccc4nc3NC3CC3)CC2)cc1 ... 0 (no)
N#Cc1ccc2nc(N3CCN(Cc4cc(Cl)ccc4Cl)CC3)c(Nc3cccnc3)nc2c1 ... 0 (no)

Query :: Hello, I need to know if O=C(c1ccc(C(F)F)cc1)N1CCN(c2nc3cnccc3nc2NC2CC2)CC1 has measured pIC50 not below 7. Thanks!
Result :: 0 (no)

Query :: Hello, I need to know if Cc1nnc(Nc2nc3ccccc3nc2N2CCN(Cc3cc(Cl)ccc3Cl)CC2)nc1C has measured pIC50 not below 7. Thanks!
Result :: 0 (no)

Query :: Hello, I need to know if O=C(c1c(F)cccc1F)C1CCN(c2nc3cnccc3nc2NC2CC2)CC1 has measured pIC50 not below 7. Thanks!
Result :: 0 (no)

----------
# tested target: G-protein coupled receptor 6 (Homo sapiens, UniProt P46095)
# test method notes: Activity at GPR6 (unknown origin) expressed in CHOK1 cells assessed as inhibition of constitutive cAMP activity incubated for 45 mins by HTRF based cAMP detection assay
measured property: log10(IC50) (log10 of the value in nM)
Note: values are log10 of IC50 expressed in nM.

Query :: Give reported log10(IC50) value for N#Cc1ccc2nc(Nc3cccnc3)c(N3CCC(Cc4ccc(F)cc4F)CC3)nc2c1
Result :: 2.59

----------
Entries and their IC50
# tested target: G-protein coupled receptor 6 (Homo sapiens)
# test method notes: Activity at GPR6 (unknown origin) expressed in CHOK1 cells assessed as inhibition of constitutive cAMP activity incubated for 45 mins by HTRF based cAMP detection assay
Return type: number; implicit unit nM.

Consider the following illustrative entries.
Cc1cc2nc(NC3CC3)c(N3CCC(S(=O)(=O)c4ccc(F)cc4)CC3)nc2cn1 ... 93
Cc1cc2nc(NC3CC3)c(N3CCC(Cn4cc(Cl)ccc4=O)CC3)nc2cn1 ... 770
N#Cc1cccc2nc(NC3CC3)c(N3CCN(Cc4cc(Cl)ccc4Cl)CC3)nc12 ... 650
Fc1ccc(F)c(C(F)C2CCN(c3nc4cnccc4nc3NC3CC3)CC2)c1 (stereo not given) ... 20
Cc1nccc2nc(NC3CC3)c(N3CCC(Cc4ccc(F)cc4F)CC3)nc12 ... 2
COc1ccc(CN2CCN(c3nc4c(C#N)nccc4nc3NC3CC3)CC2)c(F)c1 ... 88

Query :: Give reported IC50 value for N#Cc1ccc2nc(NC3CC3)c(N3CCC(Cn4cc(Cl)ccc4=O)CC3)nc2c1
Result :: 930

----------
# tested target: UniProt P46095
# test method notes: Activity at GPR6 (unknown origin) expressed in CHOK1 cells assessed as inhibition of constitutive cAMP activity incubated for 45 mins by HTRF based cAMP detection assay
pIC50: −log10 of the molar value.
Lab note: compare pIC50 against 7. Equal or greater, write label 1. Smaller, write label 0.

Sample answers from the record:
Clc1ccc(Cl)c(CN2CCN(c3nc4ccccc4nc3Nc3ccccn3)CC2)c1 ... label 0
CC(C)Nc1nc2cnncc2nc1N1CCC(C(F)c2ccc(F)cc2F)CC1 (centres undefined) ... label 1
Clc1ccc(Cl)c(CN2CCN(c3nc4ccncc4nc3NC3CC3)CC2)c1 ... label 1
O=C(c1nccc2nc(NC3CC3)c(N3CCC([C@H](F)c4ccc(F)cc4F)CC3)nc12)N1CCOCC1 ... label 1
Fc1ccc(Cl)cc1C(F)(F)C1CCN(c2nc3cnccc3nc2NC2CC2)CC1 ... label 1

Query :: Hello, I need to know if CS(=O)(=O)c1ccc(C(=O)N2CCN(c3nc4ccccc4nc3NC3CC3)CC2)cc1 has measured pIC50 not below 7. Thanks!
Result :: label 0

Query :: Hello, I need to know if COc1cccc(CN2CCN(c3nc4cnncc4nc3NC(C)C)CC2)c1 has measured pIC50 not below 7. Thanks!
Result :: label 1

Query :: Hello, I need to know if O=C(c1nccc2nc(NC3CC3)c(N3CCC([C@@H](F)c4ccc(F)cc4F)CC3)nc12)N1CCOCC1 has measured pIC50 not below 7. Thanks!
Result :: label 1

----------
# tested target: G-protein coupled receptor 6 (Homo sapiens)
# test method notes: Activity at GPR6 (unknown origin) expressed in CHOK1 cells assessed as inhibition of constitutive cAMP activity incubated for 45 mins by HTRF based cAMP detection assay
measured property: IC50 (nM)
Return type: number; implicit unit nM.

COc1ccc(CN2CCN(c3nc4cnc(C(=O)N(C)C)cc4nc3NC3CC3)CC2)c(F)c1 ... 939

Query :: Give reported IC50 value for N#Cc1ccccc1OC1CCN(c2nc3cnccc3nc2NC2CC2)CC1
Result :: 2880

Query :: Give reported IC50 value for N#Cc1ccc2nc(Nc3ccon3)c(N3CCN(C(=O)c4ccc(Cl)cc4)CC3)nc2c1
Result :: 15400
